Attribution: ChEMBL document CHEMBL1144750

target: RAC-alpha serine/threonine-protein kinase (Homo sapiens, UniProt P31749)

{"structure": "Nc1nc(N)c2c(n1)NCCC(c1ccccc1)=N2", "measurement-target": "RAC-alpha serine/threonine-protein kinase (Homo sapiens, UniProt P31749)", "IC50": "> 100 µM"}
{"structure": "Cc1cccc(C2=Nc3c(N)ncnc3NCC2)c1", "measurement-target": "RAC-alpha serine/threonine-protein kinase (Homo sapiens, UniProt P31749)", "IC50": "> 100 µM"}
{"structure": "Nc1ncnc2c1N=C(c1ccccc1)CCN2", "measurement-target": "RAC-alpha serine/threonine-protein kinase (Homo sapiens, UniProt P31749)", "IC50": "92 µM"}
{"structure": "Nc1nc(N)c2c(n1)NCCC(c1cccc(Cl)c1)=N2", "measurement-target": "RAC-alpha serine/threonine-protein kinase (Homo sapiens, UniProt P31749)", "IC50": "> 100 µM"}
{"structure": "Cc1ccc(C2=Nc3c(N)ncnc3NCC2)cc1", "measurement-target": "RAC-alpha serine/threonine-protein kinase (Homo sapiens, UniProt P31749)", "IC50": "> 100 µM"}
{"structure": "Nc1ncnc2c1N=C(c1ccc(Cl)cc1)CCN2", "measurement-target": "RAC-alpha serine/threonine-protein kinase (Homo sapiens, UniProt P31749)", "IC50": "> 100 µM"}

----------
Reported values of IC50 for individual entries
target: Vascular endothelial growth factor receptor 2 (Homo sapiens); assay: Inhibition of KDR in presence of 10 uM ATP
measure-name: IC50 (µM)

{"structure": "Nc1ncnc2c1N=C(c1ccccc1)CCN2", "measure-name": "IC50", "observed-measurement": 3}
{"structure": "Nc1ncnc2c1N=C(c1ccc(Cl)cc1)CCN2", "measure-name": "IC50", "observed-measurement": 3}
{"structure": "Cc1cccc(C2=Nc3c(N)ncnc3NCC2)c1", "measure-name": "IC50", "observed-measurement": 3}
{"structure": "Nc1nc(N)c2c(n1)NCCC(c1ccccc1)=N2", "measure-name": "IC50", "observed-measurement": 35}
{"structure": "Nc1nc(N)c2c(n1)NCCC(c1ccc(Cl)cc1)=N2", "measure-name": "IC50", "observed-measurement": 9}
{"structure": "Nc1ncnc2c1N=C(c1cccc(Cl)c1)CCN2", "measure-name": "IC50", "observed-measurement": 0.6}
{"structure": "Nc1nc(N)c2c(n1)NCCC(c1cccc(Cl)c1)=N2", "measure-name": "IC50", "observed-measurement": 21}
{"structure": "Cc1ccc(C2=Nc3c(N)ncnc3NCC2)cc1", "measure-name": "IC50", "observed-measurement": 4}

----------
molecular target: Serine/threonine-protein kinase PAK 4 (Homo sapiens, UniProt O96013)
Sequence (O96013 whole entry): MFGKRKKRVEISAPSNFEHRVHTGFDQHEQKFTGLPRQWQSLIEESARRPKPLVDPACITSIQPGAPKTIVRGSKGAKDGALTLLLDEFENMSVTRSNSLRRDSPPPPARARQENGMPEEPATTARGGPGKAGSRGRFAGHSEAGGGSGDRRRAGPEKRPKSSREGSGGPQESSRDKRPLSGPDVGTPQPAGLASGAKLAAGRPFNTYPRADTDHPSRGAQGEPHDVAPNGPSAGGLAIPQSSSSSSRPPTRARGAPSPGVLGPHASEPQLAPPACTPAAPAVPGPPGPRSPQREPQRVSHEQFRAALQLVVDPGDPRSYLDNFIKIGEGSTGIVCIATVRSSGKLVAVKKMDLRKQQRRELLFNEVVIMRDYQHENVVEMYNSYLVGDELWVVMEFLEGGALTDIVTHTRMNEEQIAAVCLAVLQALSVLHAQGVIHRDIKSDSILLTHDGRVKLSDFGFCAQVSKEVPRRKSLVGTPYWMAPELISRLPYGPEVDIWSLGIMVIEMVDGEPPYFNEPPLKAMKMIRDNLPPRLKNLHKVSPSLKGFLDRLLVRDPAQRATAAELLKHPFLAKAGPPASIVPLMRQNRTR
pIC50: −log10 of the molar value.

{"structure": "Nc1ncnc2c1N=C(c1ccc(Cl)cc1)CCN2", "measurement-target": "Serine/threonine-protein kinase PAK 4 (Homo sapiens, UniProt O96013)", "pIC50": "< 4.00"}

----------
Reported IC50 is given for each of the following compounds.
biological target: Vascular endothelial growth factor receptor 2 (Homo sapiens, UniProt P35968); test: Inhibition of KDR in presence of 1 mM ATP
Sequence (P35968 whole entry): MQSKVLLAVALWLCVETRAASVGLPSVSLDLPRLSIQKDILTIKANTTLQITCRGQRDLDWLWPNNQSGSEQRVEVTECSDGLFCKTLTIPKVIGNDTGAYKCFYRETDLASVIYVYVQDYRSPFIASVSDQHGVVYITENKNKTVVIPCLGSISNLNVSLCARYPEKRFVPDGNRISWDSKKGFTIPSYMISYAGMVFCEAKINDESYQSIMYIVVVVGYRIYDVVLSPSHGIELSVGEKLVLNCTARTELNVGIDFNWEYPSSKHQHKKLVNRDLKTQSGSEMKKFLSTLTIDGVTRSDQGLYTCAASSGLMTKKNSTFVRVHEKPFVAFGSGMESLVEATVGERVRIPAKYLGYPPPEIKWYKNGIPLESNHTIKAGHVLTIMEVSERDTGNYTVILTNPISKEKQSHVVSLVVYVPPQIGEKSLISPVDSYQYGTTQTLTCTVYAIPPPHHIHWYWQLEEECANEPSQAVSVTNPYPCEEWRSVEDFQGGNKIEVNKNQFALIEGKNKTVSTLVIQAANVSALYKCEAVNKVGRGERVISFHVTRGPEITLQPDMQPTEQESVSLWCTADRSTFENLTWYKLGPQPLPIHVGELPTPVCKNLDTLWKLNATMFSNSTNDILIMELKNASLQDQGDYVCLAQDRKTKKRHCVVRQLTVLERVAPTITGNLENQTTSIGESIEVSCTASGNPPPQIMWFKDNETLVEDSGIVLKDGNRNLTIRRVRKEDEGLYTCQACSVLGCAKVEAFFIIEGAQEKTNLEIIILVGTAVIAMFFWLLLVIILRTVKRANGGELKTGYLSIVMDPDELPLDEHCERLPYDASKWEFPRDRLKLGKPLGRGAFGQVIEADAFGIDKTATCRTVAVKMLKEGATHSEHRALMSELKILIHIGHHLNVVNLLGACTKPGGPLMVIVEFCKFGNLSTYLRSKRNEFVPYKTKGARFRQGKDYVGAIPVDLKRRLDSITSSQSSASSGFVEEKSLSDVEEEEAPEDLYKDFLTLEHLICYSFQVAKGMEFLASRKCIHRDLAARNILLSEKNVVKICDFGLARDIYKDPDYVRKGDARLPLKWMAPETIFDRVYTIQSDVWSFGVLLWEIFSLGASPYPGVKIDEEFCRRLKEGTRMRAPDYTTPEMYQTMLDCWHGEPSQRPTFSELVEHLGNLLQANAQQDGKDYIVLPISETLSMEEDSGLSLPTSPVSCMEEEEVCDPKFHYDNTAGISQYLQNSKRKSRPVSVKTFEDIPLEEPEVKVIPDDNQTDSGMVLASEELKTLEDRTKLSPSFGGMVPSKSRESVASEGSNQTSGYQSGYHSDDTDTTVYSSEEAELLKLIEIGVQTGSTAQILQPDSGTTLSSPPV
measure-name: IC50 (µM)

{"structure": "Nc1ncnc2c1N=C(c1ccc(NC(=O)Nc3cccc(C(F)(F)F)c3F)cc1)CCN2", "observed-measurement": 0.049}
{"structure": "Nc1ncnc2c1N=C(c1cccc(NC(=O)Nc3ccccc3)c1)CCN2", "observed-measurement": 0.888}
{"structure": "Nc1ncnc2c1N=C(c1ccc(NC(=O)Nc3cccc(Cl)c3)cc1)CCN2", "observed-measurement": 0.019}
{"structure": "Nc1ncnc2c1N=C(c1ccc(NC(=O)Nc3cc(C(F)(F)F)ccc3F)cc1)CCN2", "observed-measurement": 0.004}
{"structure": "Nc1ncnc2c1N=C(c1ccc(NC(=O)Nc3ccccc3)cc1)CCN2", "observed-measurement": 0.951}
{"structure": "Nc1ncnc2c1N=C(c1ccc(NC(=O)Nc3cccc(C(F)(F)F)c3)cc1)CCN2", "observed-measurement": 0.003}
{"structure": "Cc1ccc(F)c(NC(=O)Nc2ccc(C3=Nc4c(N)ncnc4NCC3)cc2)c1", "observed-measurement": 0.065}
{"structure": "Nc1ncnc2c1N=C(c1ccc(NC(=O)Nc3ccc(Cl)c(C(F)(F)F)c3)cc1)CCN2", "observed-measurement": 0.006}
{"structure": "Nc1nc(N)c2c(n1)NCCC(c1ccc(NC(=O)Nc3ccccc3)cc1)=N2", "observed-measurement": 2.86}
{"structure": "Nc1ncnc2c1N=C(c1ccc(NC(=O)Nc3ccc(F)c(C(F)(F)F)c3)cc1)CCN2", "observed-measurement": 0.005}
{"structure": "Nc1ncnc2c1N=C(c1ccc(NC(=O)Nc3ccc(C(F)(F)F)cc3)cc1)CCN2", "observed-measurement": 0.11}

----------
The following molecules are shown together with reported IC50 values.
biological target: Vascular endothelial growth factor receptor 2 (Mus musculus, UniProt P35918); experiment: Inhibition of VEGF-induced KDR phosphorylation in mouse 3T3 cells
Sequence (P35918 whole entry): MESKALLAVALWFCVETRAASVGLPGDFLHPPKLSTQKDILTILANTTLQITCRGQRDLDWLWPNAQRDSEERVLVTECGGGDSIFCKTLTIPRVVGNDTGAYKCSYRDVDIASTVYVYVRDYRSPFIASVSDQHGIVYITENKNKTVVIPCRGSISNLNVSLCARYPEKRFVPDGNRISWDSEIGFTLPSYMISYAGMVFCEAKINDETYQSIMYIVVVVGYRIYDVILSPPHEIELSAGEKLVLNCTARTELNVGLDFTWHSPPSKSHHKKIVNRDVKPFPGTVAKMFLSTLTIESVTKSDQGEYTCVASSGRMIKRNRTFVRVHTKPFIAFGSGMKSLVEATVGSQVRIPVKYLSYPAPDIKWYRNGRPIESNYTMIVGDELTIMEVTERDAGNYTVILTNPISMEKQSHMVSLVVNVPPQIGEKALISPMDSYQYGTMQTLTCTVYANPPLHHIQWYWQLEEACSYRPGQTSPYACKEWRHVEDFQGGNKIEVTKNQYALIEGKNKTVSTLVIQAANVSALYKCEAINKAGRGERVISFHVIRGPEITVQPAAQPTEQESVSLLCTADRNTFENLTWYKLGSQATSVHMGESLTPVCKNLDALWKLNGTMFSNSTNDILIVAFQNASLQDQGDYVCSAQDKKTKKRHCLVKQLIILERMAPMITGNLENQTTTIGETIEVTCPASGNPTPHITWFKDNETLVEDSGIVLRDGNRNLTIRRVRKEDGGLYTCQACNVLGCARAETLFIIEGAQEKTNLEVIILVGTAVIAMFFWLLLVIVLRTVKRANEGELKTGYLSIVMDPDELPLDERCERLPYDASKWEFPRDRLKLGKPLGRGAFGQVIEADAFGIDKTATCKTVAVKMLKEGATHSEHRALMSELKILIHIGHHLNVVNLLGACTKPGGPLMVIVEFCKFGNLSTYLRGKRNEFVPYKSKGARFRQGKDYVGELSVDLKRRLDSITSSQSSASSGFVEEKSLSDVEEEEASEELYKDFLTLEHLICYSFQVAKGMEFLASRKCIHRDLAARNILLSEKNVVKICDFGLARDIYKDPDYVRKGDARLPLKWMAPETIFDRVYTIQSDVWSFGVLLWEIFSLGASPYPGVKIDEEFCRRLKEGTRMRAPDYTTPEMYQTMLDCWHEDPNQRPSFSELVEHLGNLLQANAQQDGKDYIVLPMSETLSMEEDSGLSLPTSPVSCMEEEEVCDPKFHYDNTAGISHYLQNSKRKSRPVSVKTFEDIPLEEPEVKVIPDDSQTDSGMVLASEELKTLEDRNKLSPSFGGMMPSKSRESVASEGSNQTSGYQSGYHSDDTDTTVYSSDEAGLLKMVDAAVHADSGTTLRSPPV

{"structure": "Cc1ccc(F)c(NC(=O)Nc2ccc(C3=Nc4c(N)ncnc4NCC3)cc2)c1", "IC50 [nM]": 311}
{"structure": "Nc1ncnc2c1N=C(c1ccc(NC(=O)Nc3cccc(C(F)(F)F)c3F)cc1)CCN2", "IC50 [nM]": 1520}
{"structure": "Nc1ncnc2c1N=C(c1ccc(NC(=O)Nc3cccc(Cl)c3)cc1)CCN2", "IC50 [nM]": 50}
{"structure": "Cc1ccc(C2=Nc3c(N)ncnc3NCC2)cc1NC(=O)Nc1cccc(C(F)(F)F)c1", "IC50 [nM]": 52}
{"structure": "Nc1ncnc2c1N=C(c1ccc(NC(=O)Nc3ccc(F)c(C(F)(F)F)c3)cc1)CCN2", "IC50 [nM]": 345}
{"structure": "Nc1ncnc2c1N=C(c1ccc(NC(=O)Nc3ccc(Cl)c(C(F)(F)F)c3)cc1)CCN2", "IC50 [nM]": 49}
{"structure": "Nc1ncnc2c1N=C(c1ccc(NC(=O)Nc3cc(C(F)(F)F)ccc3F)cc1)CCN2", "IC50 [nM]": 121}
{"structure": "Nc1ncnc2c1N=C(c1cccc(NC(=O)Nc3cccc(C(F)(F)F)c3)c1)CCN2", "IC50 [nM]": 790}
{"structure": "Nc1ncnc2c1N=C(c1ccc(NC(=O)Nc3ccc(C(F)(F)F)cc3)cc1)CCN2", "IC50 [nM]": 2440}
{"structure": "Nc1ncnc2c1N=C(c1ccc(NC(=O)Nc3cccc(C(F)(F)F)c3)cc1)CCN2", "IC50 [nM]": 13}

----------
test: Inhibition of CK2
# IC50 per record follows
measure-name: IC50

{"structure": "Nc1ncnc2c1N=C(c1ccc(Cl)cc1)CCN2", "observed-measurement": "> 100 µM"}
{"structure": "Nc1nc(N)c2c(n1)NCCC(c1ccccc1)=N2", "observed-measurement": "> 100 µM"}
{"structure": "Nc1ncnc2c1N=C(c1ccccc1)CCN2", "observed-measurement": "4 µM"}
{"structure": "Cc1cccc(C2=Nc3c(N)ncnc3NCC2)c1", "observed-measurement": "12 µM"}
{"structure": "Nc1nc(N)c2c(n1)NCCC(c1ccc(Cl)cc1)=N2", "observed-measurement": "> 100 µM"}
{"structure": "Cc1ccc(C2=Nc3c(N)ncnc3NCC2)cc1", "observed-measurement": "> 100 µM"}

----------
target: Serine/threonine-protein kinase PLK1 (Homo sapiens, UniProt P53350)
Sequence (P53350 whole entry): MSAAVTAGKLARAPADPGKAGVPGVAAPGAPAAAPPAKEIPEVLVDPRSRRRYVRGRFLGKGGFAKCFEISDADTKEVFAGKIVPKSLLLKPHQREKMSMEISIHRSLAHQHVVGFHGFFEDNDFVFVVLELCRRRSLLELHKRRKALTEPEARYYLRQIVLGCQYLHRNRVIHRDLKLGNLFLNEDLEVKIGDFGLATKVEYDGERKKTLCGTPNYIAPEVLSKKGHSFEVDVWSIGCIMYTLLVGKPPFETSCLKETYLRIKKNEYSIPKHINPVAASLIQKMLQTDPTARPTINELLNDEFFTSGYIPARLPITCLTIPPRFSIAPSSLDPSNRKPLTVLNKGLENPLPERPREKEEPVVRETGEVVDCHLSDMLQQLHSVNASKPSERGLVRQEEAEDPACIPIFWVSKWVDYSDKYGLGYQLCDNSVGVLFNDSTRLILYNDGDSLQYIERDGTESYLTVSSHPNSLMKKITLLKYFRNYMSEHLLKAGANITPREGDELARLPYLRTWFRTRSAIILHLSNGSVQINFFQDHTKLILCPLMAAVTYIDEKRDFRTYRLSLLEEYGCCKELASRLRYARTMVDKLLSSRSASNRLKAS
pIC50: −log10 of the molar value.
measure-name: pIC50

{"structure": "Nc1nc(N)c2c(n1)NCCC(c1ccccc1)=N2", "measure-name": "pIC50", "observed-measurement": "< 4.00"}
{"structure": "Nc1nc(N)c2c(n1)NCCC(c1ccc(Cl)cc1)=N2", "measure-name": "pIC50", "observed-measurement": "< 4.00"}
{"structure": "Nc1ncnc2c1N=C(c1cccc(Cl)c1)CCN2", "measure-name": "pIC50", "observed-measurement": "< 4.00"}
{"structure": "Cc1cccc(C2=Nc3c(N)ncnc3NCC2)c1", "measure-name": "pIC50", "observed-measurement": 4.30}

----------
Quick note: these are IC50 numbers for system: Receptor-type tyrosine-protein kinase FLT3 (Homo sapiens, UniProt P36888)
Sequence (P36888 whole entry): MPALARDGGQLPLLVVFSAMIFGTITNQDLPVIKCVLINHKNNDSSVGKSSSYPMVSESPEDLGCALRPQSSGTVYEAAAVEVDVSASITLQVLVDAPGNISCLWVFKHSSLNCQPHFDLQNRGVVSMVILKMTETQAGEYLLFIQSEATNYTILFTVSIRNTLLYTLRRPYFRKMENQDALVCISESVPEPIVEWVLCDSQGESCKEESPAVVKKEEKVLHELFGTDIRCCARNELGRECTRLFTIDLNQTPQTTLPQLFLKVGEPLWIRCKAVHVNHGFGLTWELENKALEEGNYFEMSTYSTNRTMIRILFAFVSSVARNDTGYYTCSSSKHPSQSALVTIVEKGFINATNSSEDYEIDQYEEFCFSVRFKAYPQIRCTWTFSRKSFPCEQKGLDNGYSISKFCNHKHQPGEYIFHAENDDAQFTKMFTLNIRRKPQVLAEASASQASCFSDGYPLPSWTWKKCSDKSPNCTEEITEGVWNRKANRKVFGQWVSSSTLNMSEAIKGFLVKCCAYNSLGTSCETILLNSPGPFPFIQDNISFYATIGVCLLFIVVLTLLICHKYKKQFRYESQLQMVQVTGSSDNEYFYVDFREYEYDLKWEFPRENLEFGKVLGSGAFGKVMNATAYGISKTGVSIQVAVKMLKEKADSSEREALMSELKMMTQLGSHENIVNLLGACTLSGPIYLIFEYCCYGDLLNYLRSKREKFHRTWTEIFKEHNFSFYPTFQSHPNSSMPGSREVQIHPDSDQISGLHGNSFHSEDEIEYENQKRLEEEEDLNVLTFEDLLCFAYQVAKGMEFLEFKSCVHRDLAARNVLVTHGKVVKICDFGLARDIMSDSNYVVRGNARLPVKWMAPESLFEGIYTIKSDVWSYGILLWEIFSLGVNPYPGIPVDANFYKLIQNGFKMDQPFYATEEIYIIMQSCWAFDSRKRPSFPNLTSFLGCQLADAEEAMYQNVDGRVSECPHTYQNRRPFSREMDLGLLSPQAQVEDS

{"structure": "Nc1ncnc2c1N=C(c1ccc(NC(=O)Nc3cccc(C(F)(F)F)c3)cc1)CCN2", "IC50 [nM]": 2}
{"structure": "Nc1ncnc2c1N=C(c1ccc(NC(=O)Nc3cccc(C(F)(F)F)c3F)cc1)CCN2", "IC50 [nM]": 3}
{"structure": "Nc1ncnc2c1N=C(c1cccc(NC(=O)Nc3ccccc3)c1)CCN2", "IC50 [nM]": 2700}
{"structure": "Nc1ncnc2c1N=C(c1ccc(NC(=O)Nc3ccc(C(F)(F)F)cc3)cc1)CCN2", "IC50 [nM]": 9}
{"structure": "Nc1ncnc2c1N=C(c1ccc(NC(=O)Nc3ccc(Cl)c(C(F)(F)F)c3)cc1)CCN2", "IC50 [nM]": 16}
{"structure": "Nc1ncnc2c1N=C(c1ccc(NC(=O)Nc3cccc(Cl)c3)cc1)CCN2", "IC50 [nM]": 6}
